Target: ΔF508-CFTR (Homo sapiens, UniProt P13569, DEL508-508)
Construct: host or cells: CFBE41o-, doxycycline-inducible
Sequence (P13569 with tags, fused parts or gaps DEL508-508): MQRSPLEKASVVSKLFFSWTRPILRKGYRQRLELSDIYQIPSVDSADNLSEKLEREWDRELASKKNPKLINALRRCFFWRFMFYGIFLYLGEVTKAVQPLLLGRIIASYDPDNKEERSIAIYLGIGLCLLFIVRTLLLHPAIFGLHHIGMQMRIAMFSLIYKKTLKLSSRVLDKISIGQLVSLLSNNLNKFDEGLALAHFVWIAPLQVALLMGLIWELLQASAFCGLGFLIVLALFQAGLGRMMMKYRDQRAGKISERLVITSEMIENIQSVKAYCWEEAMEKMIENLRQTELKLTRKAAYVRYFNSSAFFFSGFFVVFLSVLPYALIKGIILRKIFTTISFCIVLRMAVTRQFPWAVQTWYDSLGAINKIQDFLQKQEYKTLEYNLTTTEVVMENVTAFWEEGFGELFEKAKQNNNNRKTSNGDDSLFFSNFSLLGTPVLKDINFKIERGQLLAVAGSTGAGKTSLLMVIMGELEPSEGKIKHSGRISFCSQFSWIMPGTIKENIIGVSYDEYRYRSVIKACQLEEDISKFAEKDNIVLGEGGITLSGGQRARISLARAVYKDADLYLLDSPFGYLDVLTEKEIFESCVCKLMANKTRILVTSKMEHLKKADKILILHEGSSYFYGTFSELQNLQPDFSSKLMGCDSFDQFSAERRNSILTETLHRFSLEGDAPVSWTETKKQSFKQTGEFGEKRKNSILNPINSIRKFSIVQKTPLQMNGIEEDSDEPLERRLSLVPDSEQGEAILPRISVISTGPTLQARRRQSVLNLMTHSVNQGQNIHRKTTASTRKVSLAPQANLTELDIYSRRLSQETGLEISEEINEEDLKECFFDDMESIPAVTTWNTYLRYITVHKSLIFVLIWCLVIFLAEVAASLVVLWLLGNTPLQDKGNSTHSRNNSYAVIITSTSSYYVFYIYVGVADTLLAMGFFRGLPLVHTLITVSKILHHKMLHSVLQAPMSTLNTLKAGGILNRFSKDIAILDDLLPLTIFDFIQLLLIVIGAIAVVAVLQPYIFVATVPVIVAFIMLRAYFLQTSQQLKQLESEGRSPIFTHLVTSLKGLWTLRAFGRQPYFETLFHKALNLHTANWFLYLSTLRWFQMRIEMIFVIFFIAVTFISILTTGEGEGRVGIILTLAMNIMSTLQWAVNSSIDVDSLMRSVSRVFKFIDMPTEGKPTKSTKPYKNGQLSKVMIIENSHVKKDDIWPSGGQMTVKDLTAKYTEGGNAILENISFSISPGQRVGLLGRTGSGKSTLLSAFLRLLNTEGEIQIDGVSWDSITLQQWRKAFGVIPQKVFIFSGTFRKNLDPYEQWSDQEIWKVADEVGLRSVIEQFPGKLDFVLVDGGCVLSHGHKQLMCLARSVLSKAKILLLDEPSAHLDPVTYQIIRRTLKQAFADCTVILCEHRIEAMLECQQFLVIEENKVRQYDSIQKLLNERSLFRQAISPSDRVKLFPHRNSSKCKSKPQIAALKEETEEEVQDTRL
Assay: CFTR cell surface levels using HRP-tagged ΔF508-CFTR expressing CFBE cells, in the presence of a co-corrector
Type: cell-based
Settings: HRP-tagged ΔF508-CFTR expressing CFBE cells, in the presence of 3 μM co-corrector; read-out: EC50
Property name: pEC50
pEC50 here: minus log base 10 of the concentration, concentration in moles per litre.

Below: 5 molecules and their reported pEC50.
[
  {
    "Molecule": "CC(C)c1nn(-c2cccc(N3CCOCC3)c2)c2nc(C(=O)O)cc(-c3ccc(N4CCOCC4)cc3)c12 [compound 121]",
    "pEC50": 6.12
  },
  {
    "Molecule": "O=C(O)c1cc(OCC(F)(F)F)c2c(C3CCC3)nn(-c3ccccc3)c2n1 [compound 613]",
    "pEC50": 6.13
  },
  {
    "Molecule": "Cc1nn(-c2cccc(C(F)(F)F)c2)c2nc(C(=O)O)cc(-c3ccc(N4CCOCC4)nc3)c12 [compound 102]",
    "pEC50": 6.02
  },
  {
    "Molecule": "CC(C)c1nn(-c2ccc(F)cc2)c2nc(C(=O)O)cc(N3CC(N4CCOCC4)C3)c12 [compound 765]",
    "pEC50": 6.13
  },
  {
    "Molecule": "COc1cccc(-n2nc(C)c3c(-c4ccc(N5CCN(CC#N)CC5)cc4)cc(C(=O)O)nc32)c1 [compound 232]",
    "pEC50": 5.89
  }
]

## Input I have this molecule here, Cc1nn(-c2ccccc2)c2nc(C(=O)O)cc(-c3ccc(N4CCC4)cc3)c12 [compound 135] , and I need its recorded pEC50.
## Output 5.84

## Input Would you mind telling me what pEC50 value was observed for CC(C)c1nn(-c2cccc(N3CCCC3)c2)c2nc(C(=O)O)cc(-c3cnc(N4CCC(C#N)CC4)nc3)c12 [compound 259] ?
## Output 5.99

----------
Target: ΔF508-CFTR (Homo sapiens, UniProt P13569, DEL508-508)
Construct: host or cells: CFBE41o-, doxycycline-inducible
Assay: CFTR cell surface levels using HRP-tagged ΔF508-CFTR expressing CFBE cells, in the presence of a co-corrector
Assay type: cell-based
Conditions: HRP-tagged ΔF508-CFTR expressing CFBE cells, in the presence of 3 μM co-corrector
Property name: % Activation (%)
Response body: numeric value in %, unit text excluded.

## Input // % Activation lookup, key: CC(C)c1nn(-c2cccc(F)c2)c2nc(C(=O)O)cc(-c3ccc(N4CCC(C#N)CC4)nc3)c12
## Output 428

## Input Returns the measured % Activation for the input compound. Input: O=C(O)c1cc(O[C@@H]2CCOC2)c2c(C3CCC3)nn(-c3ccccc3)c2n1
## Output 307.5

## Input Give the measured % Activation of O=C(O)c1cc(OCCN2CCNC2=O)c2c(C3CCC3)nn(-c3ccccc3)c2n1 .
## Output 137.45

## Input Record request: % Activation value, item CCOC(=O)N1CCN(C2CCN(c3cc(C(=O)O)nc4c3c(C3CCC3)nn4-c3ccc(F)cc3)CC2)CC1
## Output 564.5

----------
Target: ΔF508-CFTR (Homo sapiens, UniProt P13569, DEL508-508)
Construct: host or cells: CFBE41o-, doxycycline-inducible
Assay: CFTR cell surface levels using HRP-tagged ΔF508-CFTR expressing CFBE cells, intrinsic corrector capacity
Type: cell-based
Conditions: HRP-tagged ΔF508-CFTR expressing CFBE cells; intrinsic corrector capacity (no co-corrector); 33° C., 20 hours
Entries and their % Activation values follow.
Expressed in %, but write only the number.

Consider the reported % Activation for these compounds:
[
  {
    "Compound": "CC(C)c1nn(-c2ccc(F)cc2)c2nc(C(=O)O)cc(N3CCC4(CCCO4)CC3)c12",
    "Unit tag": "%",
    "% Activation": 136.97
  },
  {
    "Compound": "CN1CCN(C2CCN(c3cc(C(=O)O)nc4c3c(C3CCC3)nn4-c3ccccc3)CC2)CC1",
    "Unit tag": "%",
    "% Activation": 208.45
  },
  {
    "Compound": "COCC1CCN(c2cc(C(=O)O)nc3c2c(C2CCC2)nn3-c2ccnc(C3CCOCC3)c2)CC1",
    "Unit tag": "%",
    "% Activation": 168
  },
  {
    "Compound": "N#CC1CCN(c2ccc(-c3cc(C(=O)O)nc4c3c(C3CCC3)nn4-c3ccnc(N4CCCC4)c3)cn2)CC1",
    "Unit tag": "%",
    "% Activation": 216.65
  },
  {
    "Compound": "COCC(COC)Oc1cc(C(=O)O)nc2c1c(C(C)C)nn2-c1ccc(F)cc1",
    "Unit tag": "%",
    "% Activation": 66.19
  },
  {
    "Compound": "O=C(O)c1cc(N2CCC(N3CCC(C(F)(F)F)C3)CC2)c2c(C3CCC3)nn(-c3ccc(F)cc3)c2n1 (stereo not drawn)",
    "Unit tag": "%",
    "% Activation": 299.1
  }
]

## Input Observed % Activation on ΔF508-CFTR (Homo sapiens, UniProt P13569, DEL508-508) for CC(=O)N1CC[C@@H]2CN(c3cc(C(=O)O)nc4c3c(C3CCC3)nn4-c3ccccc3)CC[C@@H]21 (single isomer, unassigned) , please.
## Output 149.5

## Input Provide the documented % Activation with ΔF508-CFTR (Homo sapiens, UniProt P13569, DEL508-508) as the system for O=C(O)c1cc(N2C[C@@H](F)C[C@@H]2CO)c2c(C3CCC3)nn(-c3ccccc3)c2n1
## Output 37.34

## Input What % Activation appears in the records for this compound with ΔF508-CFTR (Homo sapiens, UniProt P13569, DEL508-508)? O=C(O)c1cc(N2CCCC3(CC3)C2)c2c(C3CCC3)nn(-c3ccccc3)c2n1
## Output 136

## Input Query % Activation on ΔF508-CFTR (Homo sapiens, UniProt P13569, DEL508-508) for C[C@H]1C[C@H](c2nn(-c3ccccc3)c3nc(C(=O)O)cc(-c4ccc(N5CCC(C#N)CC5)nc4)c32)C1
## Output 223.1

## Input Give the reported % Activation for O=C(O)c1cc(N2CCC(N3CCOCC3)CC2)c2c(C3CCC3)nn(-c3cccc(F)c3)c2n1 (system: ΔF508-CFTR (Homo sapiens, UniProt P13569, DEL508-508)).
## Output 289

## Input Lab note: need % Activation with ΔF508-CFTR (Homo sapiens, UniProt P13569, DEL508-508) for entry CO[C@H]1CCN(c2cc(C(=O)O)nc3c2c(C2CCC2)nn3-c2ccccc2)C1 , please look it up.
## Output 103

## Input Record lookup: for ΔF508-CFTR (Homo sapiens, UniProt P13569, DEL508-508), what % Activation belongs to CCOCCN1CCN(C2CCN(c3cc(C(=O)O)nc4c3c(C(C)C)nn4-c3ccc(F)cc3)CC2)CC1 ?
## Output 239.3

## Input // fetch ΔF508-CFTR (Homo sapiens, UniProt P13569, DEL508-508) % Activation for CC(C)Oc1nn(C2CCCCC2)c2nc(C(=O)O)cc(-c3ccc(C(=O)N4CCN(C)CC4)cc3)c12
## Output 85.92

## Input # query: % Activation | item CN(C)[C@H]1C[C@@H](Oc2cc(C(=O)O)nc3c2c(C2CCC2)nn3-c2ccccc2)C1 | system: ΔF508-CFTR (Homo sapiens, UniProt P13569, DEL508-508)
## Output 84.2
